- procedure.summary: The drug is tested on Bacteroides fragilis strain: HMW615 for biotransformation. The drug concentrations were measured before and after a 12-h incubation by liquid-chromatography-coupled mass spectrometry (LC–MS)
- run.parameters: 2 µM
reported.property: Bacterial Biotransformation

Previously resolved entries follow.
COC1=CC(=O)C[C@@H](C)[C@]12Oc1c(Cl)c(OC)cc(OC)c1C2=O | Compound metabolized
Cc1ccccc1C(OCCN(C)C)c1ccccc1.O=C(O)CC(O)(CC(=O)O)C(=O)O (stereo not drawn) [ORPHENADRINE CITRATE] | Compound NOT metabolized
COc1ccnc(C[S+]([O-])c2nc3ccc(OC(F)F)cc3[nH]2)c1OC (stereo not drawn) | Compound metabolized
COc1ccc(CCN(C)CCCC(C#N)(c2ccc(OC)c(OC)c2)C(C)C)cc1OC (stereo not drawn) | Compound NOT metabolized
CC[C@@]1(O)C(=O)OCc2c1cc1n(c2=O)Cc2cc3c(CN(C)C)c(O)ccc3nc2-1 | Compound NOT metabolized
O=c1[nH]c2ccccc2n1C1CCN(CCCC(c2ccc(F)cc2)c2ccc(F)cc2)CC1 [PIMOZIDE] | Compound NOT metabolized

Hi there! I need Bacterial Biotransformation for each item below, if you can.
1. CN1C(=O)CCS(=O)(=O)C1c1ccc(Cl)cc1 (stereo not drawn)
2. C[C@@H](CO)NC(=O)[C@@H]1C=C2c3cccc4[nH]cc(c34)C[C@H]2N(C)C1.O=C(O)/C=C\C(=O)O [ERGONOVINE MALEATE]
3. Clc1ccc(Cn2c(CN3CCCC3)nc3ccccc32)cc1
4. Nc1nnc(-c2cccc(Cl)c2Cl)c(N)n1

1. Compound NOT metabolized
2. Compound metabolized
3. Compound NOT metabolized
4. Compound NOT metabolized

Hi there! I need Bacterial Biotransformation for each item below, if you can.
1. COc1cc2nc(N3CCN(C(=O)c4ccco4)CC3)nc(N)c2cc1OC
2. COc1ccccc1OCC(O)CN1CCN(CC(=O)Nc2c(C)cccc2C)CC1 (stereo not drawn)
3. CCOC(=O)[C@H](CCc1ccccc1)N[C@H]1CCc2ccccc2N(CC(=O)O)C1=O
4. CCCCC(=O)N(Cc1ccc(-c2ccccc2-c2nnn[nH]2)cc1)[C@H](C(=O)O)C(C)C
5. CN1CCN(C2=Nc3ccccc3Oc3ccc(Cl)cc32)CC1.O=C(O)CCC(=O)O [LOXAPINE SUCCINATE]

["Compound NOT metabolized", "Compound NOT metabolized", "Compound metabolized", "Compound metabolized", "Compound NOT metabolized"]
